System: M14
Assay: Growth inhibition of human M14 cells by sulforhodamine B assay
Type: functional
Conditions: read-out: TGI
REPORTED_METRIC: TGI (µM)
// return numeric value only (unit: µM, not printed)

So what's the measured TGI for this one? `CC(C)=CC(=O)O[C@@H]1CC(C)(C)C[C@H]2C3=CC[C@@H]4[C@@]5(C)CCC(=O)C(C)(C)[C@@H]5CC[C@@]4(C)[C@]3(C)CC[C@@]12C(=O)O`
25.2

// repeat for `CC1(C)C[C@@H](O)[C@]2(C(=O)O)CC[C@]3(C)C(=CC[C@@H]4[C@@]5(C)C/C(=C\C=C\c6ccccc6)C(=O)C(C)(C)[C@@H]5CC[C@]43C)[C@@H]2C1` and report
15.8

// repeat for `C/C=C(/C)C(=O)O[C@@H]1CC(C)(C)C[C@H]2C3=CC[C@@H]4[C@@]5(C)CC[C@H](O)C(C)(C)[C@@H]5CC[C@@]4(C)[C@]3(C)CC[C@@]12C(=O)O` and report
3.92

// repeat for `CC(C)=CC(=O)O[C@@H]1CC(C)(C)C[C@H]2C3=CC[C@@H]4[C@@]5(C)CC[C@H](O)C(C)(C)[C@@H]5CC[C@@]4(C)[C@]3(C)CC[C@@]12C(=O)O` and report
24.8
